- target: Acetylcholinesterase (Homo sapiens)
- protocol: Acetylcholinesterase (AChE) small molecule antagonists: fluorescence cell-based qHTS assay (AID 1347398); note: nearly all actives have a fitted effect of over 50% in size
- test_context: SH-SY5Y cells; AChE activity; series mostly up to 115 µM
- From the text: National Center for Advancing Translational Sciences [NCATS] Division of Preclinical Innovation [DPI] U.S. Environmental Protection Agency [EPA] National Institutes of Environmental Health Sciences [NIEHS] National Toxicology Program [NTP] […] A homogenous cell-based assay using Amplitetrade mark Fluorimetric Acetylcholinesterase Assay Kit *Green Fluorescence* (AAT Bioquest, Sunnyvale, CA) was used to evaluate the chemicals in the Tox21 10K library that inhibit AChE activity. […]
Inconclusive results are not listed. Calls of active or inactive are those of the source. Calls come from the whole dose curve.

{"molecule": "O=C(O)c1cc(N=Nc2ccc(S(=O)(=O)Nc3ccccn3)cc2)ccc1O", "outcome": "inactive"}
{"molecule": "CC1(C)COCN1", "outcome": "inactive"}
{"molecule": "C=CC(=O)OCCCCCC", "outcome": "inactive"}
{"molecule": "O=C(c1ccc(O)cc1)c1ccc(O)c(O)c1O", "outcome": "inactive"}
{"molecule": "Cc1oc(C)c(C(=O)Nc2ccccc2)c1C", "outcome": "inactive"}
{"molecule": "CC(=O)C1(C)CC2=C(CCCC2(C)C)CC1C (stereo unspecified)", "outcome": "inactive"}
{"molecule": "CC(C)(C)C(=O)NCCCC(=O)O", "outcome": "inactive"}
{"molecule": "C/C=C(\\C)C=O", "outcome": "inactive"}
{"molecule": "COCCCOc1cc(C[C@@H](C[C@H](N)[C@@H](O)C[C@H](C(=O)NCC(C)(C)C(N)=O)C(C)C)C(C)C)ccc1OC", "outcome": "inactive"}
{"molecule": "NC(=O)C(=O)N/N=C/c1ccc([N+](=O)[O-])o1", "outcome": "inactive"}
{"molecule": "COC[C@H](c1ccc(C(F)(F)F)cc1)N1CCN(C2(C)CCN(C(=O)c3c(C)ncnc3C)CC2)C[C@H]1C", "outcome": "inactive"}
{"molecule": "Cc1cc(C)n(CO)n1", "outcome": "inactive"}
{"molecule": "COC(=O)c1ccc(O)cc1", "outcome": "inactive"}
{"molecule": "CCN(CC)CCNC(=O)c1cc(S(C)(=O)=O)ccc1OC", "outcome": "inactive"}
{"molecule": "O=C(O)C(Cc1cc(I)c(O)c(I)c1)c1ccccc1 (stereo unspecified)", "outcome": "inactive"}
{"molecule": "CC(C)OC(=O)COc1ccc(Cl)cc1Cl", "outcome": "inactive"}
{"molecule": "CCCC(=O)Nc1ccc(OCC(O)CNC(C)C)c(C(C)=O)c1 (stereo unspecified)", "outcome": "inactive"}
{"molecule": "CC(C)(c1cc(Br)c(O)c(Br)c1)c1cc(Br)c(O)c(Br)c1", "outcome": "inactive"}
{"molecule": "CCCCN(CCCC)CCCCCCN(CCCC)CCCC", "outcome": "inactive"}
{"molecule": "C=CC(=O)OCCOCCOCCOCCOC(=O)C=C", "outcome": "inactive"}
{"molecule": "COc1cc(C=O)ccc1O", "outcome": "inactive"}
{"molecule": "O=C(O)CONC(=O)c1ccccc1", "outcome": "inactive"}
{"molecule": "CC(=O)O[C@]1(C(C)=O)CC[C@H]2[C@@H]3C[C@H](C)C4=CC(=O)CC[C@]4(C)[C@H]3CC[C@@]21C", "outcome": "inactive"}
{"molecule": "Cc1cccc(C)c1NC(=O)CN1CCN(CCCC(c2ccc(F)cc2)c2ccc(F)cc2)CC1", "outcome": "inactive"}
{"molecule": "Cc1c(C(=O)c2c[nH]n(C)c2=O)ccc(S(C)(=O)=O)c1C1=NOCC1", "outcome": "inactive"}
{"molecule": "COc1ccc(Cc2cnc(N)nc2N)cc1OC", "outcome": "inactive"}
